test system: COLO 205; assay: Antiproliferative activity against human COLO205 cells by MTT assay; format: functional, cell-based; conditions: read-out: IC50
endpoint: IC50 (µM)
# unit: µM | format: bare number

Below, 4 compounds whose answers are already recorded.
1. CCCNC(=O)c1oc2nc(-c3cccs3)cc(C(F)(F)F)c2c1N = 15.3
2. Nc1c(C(=O)N/N=C/c2ccccc2)oc2nc(-c3ccccc3)cc(C(F)(F)F)c12 = 12.2
3. CCNC(=O)c1oc2nc(-c3ccccc3)cc(C(F)(F)F)c2c1N = 29.2
4. CCNC(=O)c1oc2nc(-c3cccs3)cc(C(F)(F)F)c2c1N = 18.7

Input line: What value of IC50 has been recorded for this entry: Cc1ccc(/C=N/NC(=O)c2oc3nc(-c4cccs4)cc(C(F)(F)F)c3c2N)cc1
Output line: 21.2

---

IC50 for assorted compounds
test system: COLO 205; test: Antiproliferative activity against human COLO205 cells by MTT assay; assay type: functional, cell-based; conditions: read-out: IC50
# unit: µM | format: bare number

Use the examples below as a reference point.
1) Nc1c(C(=O)NC2CCCC2)oc2nc(-c3ccccc3)cc(C(F)(F)F)c12 = 51.1
2) Nc1c(C(=O)N/N=C/c2ccc(Br)cc2)oc2nc(-c3cccs3)cc(C(F)(F)F)c12 = 5.9
3) CNC(=O)c1oc2nc(-c3cccs3)cc(C(F)(F)F)c2c1N = 17.8

Input line: Given the compound CCCn1c(C)nc2c(oc3nc(-c4cccs4)cc(C(F)(F)F)c32)c1=O , what is its reported IC50?
Output line: 18.9

Input line: Nc1c(C(=O)N/N=C/c2ccc(Cl)cc2)oc2nc(-c3cccs3)cc(C(F)(F)F)c12 ?
Output line: 7.8

---

test system: MCF7; assay: Antiproliferative activity against human MCF7 cells by MTT assay; assay type: functional, cell-based; conditions: read-out: pIC50 (converted)
# label = true (1) if IC50 < 20 µM else false (0)

1) O=c1c2oc3nc(-c4cccs4)cc(C(F)(F)F)c3c2ncn1/N=C/c1ccc(Cl)cc1 = false (0)
2) CCCn1cnc2c(oc3nc(-c4ccccc4)cc(C(F)(F)F)c32)c1=O = false (0)
3) Cc1ccc(/C=N/NC(=O)c2oc3nc(-c4ccccc4)cc(C(F)(F)F)c3c2N)cc1 = true (1)
4) Nc1c(C(=O)N/N=C/c2ccccc2)oc2nc(-c3cccs3)cc(C(F)(F)F)c12 = true (1)
5) CNC(=O)c1oc2nc(-c3cccs3)cc(C(F)(F)F)c2c1N = true (1)

Input line: Given the entry CCNC(=O)c1oc2nc(-c3ccccc3)cc(C(F)(F)F)c2c1N , would its reported IC50 be below 20 µM?
Output line: false (0)

Input line: Note, next up: Cc1nc2c(oc3nc(-c4ccccc4)cc(C(F)(F)F)c32)c(=O)n1C1CCCC1
Output line: false (0)

Input line: Next: Cc1ccc(/C=N/NC(=O)c2oc3nc(-c4cccs4)cc(C(F)(F)F)c3c2N)cc1
Output line: true (1)

Input line: Try the compound CCCNC(=O)c1oc2nc(-c3ccccc3)cc(C(F)(F)F)c2c1N
Output line: false (0)

---

system: HeLa; experiment: Antiproliferative activity against human HeLa cells by MTT assay; assay type: functional, cell-based; settings: read-out: pIC50 (converted)
We begin with a simple list: items and their reported IC50.
Report as a plain number; the unit µM is understood.

1. CCCNC(=O)c1oc2nc(-c3ccccc3)cc(C(F)(F)F)c2c1N = 36.3
2. Nc1c(C(=O)NC2CCCC2)oc2nc(-c3cccs3)cc(C(F)(F)F)c12 = 21.9
3. Nc1c(C(=O)N/N=C/c2ccc(Br)cc2)oc2nc(-c3ccccc3)cc(C(F)(F)F)c12 = 24
4. Nc1c(C(=O)NC2CCCC2)oc2nc(-c3ccccc3)cc(C(F)(F)F)c12 = 25.7
5. Nc1c(C(=O)N/N=C/c2ccc(Cl)cc2)oc2nc(-c3cccs3)cc(C(F)(F)F)c12 = 7.94

Shift focus to the following entry.
Input line: For the record Cc1ccc(/C=N/n2cnc3c(oc4nc(-c5cccs5)cc(C(F)(F)F)c43)c2=O)cc1 , what value of IC50 is listed for HeLa?
Output line: 42.7

---

test system: MCF7; assay: Antiproliferative activity against human MCF7 cells by MTT assay; format: functional, cell-based; details: read-out: pIC50 (converted)
Consider the following compounds and their measured IC50 readings.
Record the value in µM, omitting the unit from your answer.

Worked cases, answers included:
1) Nc1c(C(=O)N/N=C/c2ccc(Cl)cc2)oc2nc(-c3ccccc3)cc(C(F)(F)F)c12 = 12
2) Nc1c(C(=O)NC2CCCC2)oc2nc(-c3ccccc3)cc(C(F)(F)F)c12 = 60.3
3) CCn1cnc2c(oc3nc(-c4ccccc4)cc(C(F)(F)F)c32)c1=O = 83.2
4) Nc1c(C(=O)NC2CCCC2)oc2nc(-c3cccs3)cc(C(F)(F)F)c12 = 22.9

We now examine a further compound.
Input line: Which value of IC50 has been reported for Nc1c(C(=O)N/N=C/c2ccc(Br)cc2)oc2nc(-c3ccccc3)cc(C(F)(F)F)c12 in the records?
Output line: 18.6

---

tested on: HeLa; test: Antiproliferative activity against human HeLa cells by MTT assay; format: functional, cell-based; conditions: read-out: IC50
endpoint: log10 of IC50 (log10 of the value in µM)
Record value = log10 of IC50 given in µM.

1) CCCn1c(C)nc2c(oc3nc(-c4cccs4)cc(C(F)(F)F)c32)c1=O = 1.45
2) Nc1c(C(=O)N/N=C/c2ccc(Br)cc2)oc2nc(-c3ccccc3)cc(C(F)(F)F)c12 = 1.38
3) Nc1c(C(=O)N/N=C/c2ccccc2)oc2nc(-c3cccs3)cc(C(F)(F)F)c12 = 1.07
4) Cc1ccc(/C=N/NC(=O)c2oc3nc(-c4ccccc4)cc(C(F)(F)F)c3c2N)cc1 = 1.07

Input line: For Nc1c(C(=O)NC2CCCC2)oc2nc(-c3cccs3)cc(C(F)(F)F)c12 , what is its reported log10 of IC50?
Output line: 1.34

Input line: Also CCCNC(=O)c1oc2nc(-c3cccs3)cc(C(F)(F)F)c2c1N ?
Output line: 1.28

Input line: Moving on to the next molecule: O=c1c2oc3nc(-c4cccs4)cc(C(F)(F)F)c3c2ncn1/N=C/c1ccccc1
Output line: 1.63

Input line: Follow-up entry: Cc1ccc(/C=N/n2cnc3c(oc4nc(-c5cccs5)cc(C(F)(F)F)c43)c2=O)cc1
Output line: 1.63

Input line: Same thing, different molecule: CCCNC(=O)c1oc2nc(-c3ccccc3)cc(C(F)(F)F)c2c1N
Output line: 1.56

Input line: Entry CCNC(=O)c1oc2nc(-c3cccs3)cc(C(F)(F)F)c2c1N please
Output line: 1.15

Input line: Try this molecule next: O=c1c2oc3nc(-c4cccs4)cc(C(F)(F)F)c3c2ncn1C1CCCC1
Output line: 1.70

Input line: Please do the same for Nc1c(C(=O)N/N=C/c2ccc(Cl)cc2)oc2nc(-c3ccccc3)cc(C(F)(F)F)c12 as well.
Output line: 0.61

Input line: What would you report for Nc1c(C(=O)N/N=C/c2ccc(Br)cc2)oc2nc(-c3cccs3)cc(C(F)(F)F)c12 ?
Output line: 0.81

Input line: Next record, please: CCNC(=O)c1oc2nc(-c3ccccc3)cc(C(F)(F)F)c2c1N
Output line: 1.56

---

test system: COLO 205; assay: Antiproliferative activity against human COLO205 cells by MTT assay; type: functional, cell-based; conditions: read-out: IC50
// NB: equality with 40 µM counts as FALSE; only IC50 strictly below is TRUE

Examples with answers:
1) Nc1c(C(=O)N/N=C/c2ccccc2)oc2nc(-c3cccs3)cc(C(F)(F)F)c12 = TRUE
2) Cc1nc2c(oc3nc(-c4ccccc4)cc(C(F)(F)F)c32)c(=O)n1C1CCCC1 = TRUE
3) O=c1c2oc3nc(-c4cccs4)cc(C(F)(F)F)c3c2ncn1/N=C/c1ccc(Cl)cc1 = FALSE
4) Nc1c(C(=O)N/N=C/c2ccc(Cl)cc2)oc2nc(-c3ccccc3)cc(C(F)(F)F)c12 = TRUE
5) Nc1c(C(=O)N/N=C/c2ccc(Br)cc2)oc2nc(-c3ccccc3)cc(C(F)(F)F)c12 = TRUE

Input line: Does O=c1c2oc3nc(-c4ccccc4)cc(C(F)(F)F)c3c2ncn1/N=C/c1ccc(Cl)cc1 have IC50 strictly under 40 µM?
Output line: FALSE

Input line: Could you do the same for Cc1ccc(/C=N/NC(=O)c2oc3nc(-c4ccccc4)cc(C(F)(F)F)c3c2N)cc1 , please?
Output line: TRUE

---

test system: HeLa; assay: Antiproliferative activity against human HeLa cells by MTT assay; type: functional, cell-based; details: read-out: pIC50 (converted)
Threshold-based label: IC50 under 6 µM gives yes, IC50 not under 6 µM gives no.

As a guide, the following entries are already answered.
1. O=c1c2oc3nc(-c4cccs4)cc(C(F)(F)F)c3c2ncn1/N=C/c1ccccc1 = no
2. Nc1c(C(=O)N/N=C/c2ccc(Cl)cc2)oc2nc(-c3ccccc3)cc(C(F)(F)F)c12 = yes
3. Nc1c(C(=O)N/N=C/c2ccc(Br)cc2)oc2nc(-c3cccs3)cc(C(F)(F)F)c12 = no
4. Cc1ccc(/C=N/NC(=O)c2oc3nc(-c4cccs4)cc(C(F)(F)F)c3c2N)cc1 = no

Input line: Lab note: confirm whether the reported IC50 for this molecule is below 6 µM, equality not counting. molecule: CCNC(=O)c1oc2nc(-c3cccs3)cc(C(F)(F)F)c2c1N
Output line: no

Values were extracted from ChEMBL document CHEMBL4118210.
